Where do the numbers come from? From ChEMBL document CHEMBL1137483.

- Tested on: Kidney
- protocol: Biodistribution in ddY mouse kidney at 0.2 to 0.3 uCi, iv after 2 mins
- Assay type: ADME, organism-based
- reported-conditions: in vivo
measurement-label: Drug uptake (% ID/g)

P = CNc1ccc(/C=C/C(=O)c2ccc([125I])cc2)cc1
Q = COc1ccc(/C=C/C(=O)c2ccc([125I])cc2)cc1
Q: P or Q : whose Drug uptake is greater? Refer to your chosen entry by its label in the reply.
Result: P
(P: 6.62 % ID/g, Q: 4.61 % ID/g)

A = O=C(/C=C/c1ccc(O)cc1)c1ccc([125I])cc1
B = CN(C)c1ccc(/C=C/C(=O)c2ccc([125I])cc2)cc1
Q: A or B : whose Drug uptake is greater? Refer to your chosen entry by its label in the reply.
Result: A
(A: 9.3 % ID/g, B: 5.32 % ID/g)
